Could you please report measured pIC50 for the items listed next?
# assay-target: recombinant human AXL expressed in live cells (HEK, AXL-Nanoluc fusion vector) (Homo sapiens)
# Construct: host or cells: HEK
# Sequence (P30530 26-894): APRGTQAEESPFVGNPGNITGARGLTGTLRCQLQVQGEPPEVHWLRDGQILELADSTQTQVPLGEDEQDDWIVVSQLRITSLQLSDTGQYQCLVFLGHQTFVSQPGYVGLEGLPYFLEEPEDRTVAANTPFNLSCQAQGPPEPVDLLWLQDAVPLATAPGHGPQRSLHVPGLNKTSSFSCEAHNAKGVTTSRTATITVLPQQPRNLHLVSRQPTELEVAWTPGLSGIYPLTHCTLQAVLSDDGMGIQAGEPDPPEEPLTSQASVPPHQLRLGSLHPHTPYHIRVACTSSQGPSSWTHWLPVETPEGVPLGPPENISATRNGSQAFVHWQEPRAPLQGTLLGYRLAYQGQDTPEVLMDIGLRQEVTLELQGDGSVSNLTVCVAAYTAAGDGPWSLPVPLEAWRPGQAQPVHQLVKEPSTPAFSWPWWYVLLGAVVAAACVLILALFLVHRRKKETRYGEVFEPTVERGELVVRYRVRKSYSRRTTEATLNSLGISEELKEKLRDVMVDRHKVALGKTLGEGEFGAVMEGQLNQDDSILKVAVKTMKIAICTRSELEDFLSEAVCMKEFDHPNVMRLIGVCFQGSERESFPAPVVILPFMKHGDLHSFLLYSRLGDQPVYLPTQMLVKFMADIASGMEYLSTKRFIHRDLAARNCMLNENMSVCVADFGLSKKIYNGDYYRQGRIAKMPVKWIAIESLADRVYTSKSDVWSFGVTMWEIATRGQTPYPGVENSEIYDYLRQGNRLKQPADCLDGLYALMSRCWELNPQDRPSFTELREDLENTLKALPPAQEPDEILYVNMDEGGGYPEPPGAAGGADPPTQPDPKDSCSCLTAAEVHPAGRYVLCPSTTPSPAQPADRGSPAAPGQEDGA
# test-method-notes: Assay 3 AXL cellular target engagement (NanoBRET TE) assay
# Assay type: cell-based
Give bare numbers, as −log10 of the molar value.

Solved entries (count: 2):
{"columns": ["smiles-representation", "pIC50"],
 "data": [
  ["O=C(NOCCO)c1cc2c(Nc3ccc(NC(=O)c4cccn(-c5ccccc5)c4=O)cc3)ccnc2cn1", 6.47],
  ["C[C@H](CO)n1cc(C(=O)Nc2ccc(Oc3ccnc4cnc(C(=O)NC5CCN(C)CC5)cc34)cc2)c(=O)n(-c2ccc(F)cc2)c1=O", 7.51]
]}

For each of the compounds below, state pIC50.
1. NC(=O)c1cc2c(Nc3ccc(NC(=O)c4cccn(-c5ccccc5)c4=O)cc3)ccnc2cn1
2. CC(C)n1cc(C(=O)Nc2ccc(Oc3ccnc4cnc(N5CCNCC5)cc34)cc2)c(=O)n(-c2ccccn2)c1=O
3. O=C(N[C@H]1CC[C@H](O)CC1)c1cc2c(Nc3ccc(NC(=O)c4cccn(-c5ccccc5)c4=O)cc3)ccnc2cn1

1. 6.44
2. 7.09
3. 7.01

For each of the compounds below, state pIC50.
1. CN1CCC(NC(=O)c2cc3c(Oc4ccc(NC(=O)c5cn(C)cc(-c6ccc(F)cc6)c5=O)cc4)ccnc3cn2)CC1
2. O=C(Nc1ccc(Nc2ccnc3cnc(N4CCOCC4)cc23)cc1)c1cccn(-c2ccccc2)c1=O
3. CN1CCC(NC(=O)c2cc3c(Nc4ccc(NC(=O)c5cccn(-c6ccccc6)c5=O)cc4)ccnc3cn2)CC1
4. CN1CCC(NC(=O)c2cc3c(Oc4ccc(NC(=O)c5cccn(-c6ccccc6)c5=O)cc4F)ccnc3cn2)CC1
5. O=C(Nc1ccc(Nc2ccnc3cnc(N4CCCNCC4)cc23)cc1)c1cccn(-c2ccccc2)c1=O

7.47
5.85
8.15
7.20
6.72

For each of the compounds below, state pIC50.
1. CC(C)n1cc(C(=O)Nc2ccc(Nc3ccnc4cnc(N5CCNCC5)cc34)cc2)c(=O)n(-c2ccccc2)c1=O
2. CN1CCC(NC(=O)c2cc3c(Oc4ccc(NC(=O)c5cccn(-c6ccccc6)c5=O)cc4)ccnc3cn2)CC1

[7.61, 6.96]

For each of the compounds below, state pIC50.
1. Cc1cc(NC(=O)c2cccn(-c3ccccc3)c2=O)ccc1Oc1ccnc2cnc(N3CCNCC3)cc12
2. CC(C)n1cc(C(=O)Nc2ccc(Oc3ccnc4cnc(C(=O)NC5CCN(C)CC5)cc34)cn2)c(=O)n(-c2ccc(F)cc2)c1=O
3. O=C(Nc1ccc(Nc2ccnc3cnc(N4CCNCC4)cc23)cc1)c1cccn(-c2ccccc2)c1=O
4. CN1CCC(NC(=O)c2cc3c(Oc4ccc(NC(=O)c5cn(C6CC6)c(=O)n(-c6ccc(F)cc6)c5=O)cc4)ccnc3cn2)CC1
5. CN1CCC(n2cc(-c3cc4c(Nc5ccc(NC(=O)c6cccn(-c7ccccc7)c6=O)cc5)ccnc4cn3)cn2)CC1
6. O=C(Nc1ccc(Nc2ccnc3cnc(N4CCNCC4)cc23)cc1)c1cccn(-c2ccc(F)cc2)c1=O
7. CC(C)n1cc(C(=O)Nc2ccc(Oc3ccnc4cnc(C(=O)NC5CCN(C)CC5)cc34)cc2)c(=O)c(-c2ccc(F)cc2)c1
8. CC(C)n1cc(C(=O)Nc2ccc(Oc3ccnc4cnc(N5CCNCC5)cc34)cc2)c(=O)c(-c2ccc(F)cc2)c1

6.47
7.85
6.84
7.48
6.88
6.94
8.21
8.15

For each of the compounds below, state pIC50.
1. CC(C)n1cc(C(=O)Nc2ccc(Nc3ccnc4cnc(N5CCNCC5)cc34)cc2)c(=O)n(-c2ccc(F)cc2)c1=O
2. CC(C)n1cc(C(=O)Nc2ccc(Oc3ccnc4cnc(N5CCNCC5)cc34)cc2)c(=O)n(-c2ccc(F)cn2)c1=O

[8.54, 7.89]
